Target: human IRAK1 (Homo sapiens)
Sequence (P51617 whole entry): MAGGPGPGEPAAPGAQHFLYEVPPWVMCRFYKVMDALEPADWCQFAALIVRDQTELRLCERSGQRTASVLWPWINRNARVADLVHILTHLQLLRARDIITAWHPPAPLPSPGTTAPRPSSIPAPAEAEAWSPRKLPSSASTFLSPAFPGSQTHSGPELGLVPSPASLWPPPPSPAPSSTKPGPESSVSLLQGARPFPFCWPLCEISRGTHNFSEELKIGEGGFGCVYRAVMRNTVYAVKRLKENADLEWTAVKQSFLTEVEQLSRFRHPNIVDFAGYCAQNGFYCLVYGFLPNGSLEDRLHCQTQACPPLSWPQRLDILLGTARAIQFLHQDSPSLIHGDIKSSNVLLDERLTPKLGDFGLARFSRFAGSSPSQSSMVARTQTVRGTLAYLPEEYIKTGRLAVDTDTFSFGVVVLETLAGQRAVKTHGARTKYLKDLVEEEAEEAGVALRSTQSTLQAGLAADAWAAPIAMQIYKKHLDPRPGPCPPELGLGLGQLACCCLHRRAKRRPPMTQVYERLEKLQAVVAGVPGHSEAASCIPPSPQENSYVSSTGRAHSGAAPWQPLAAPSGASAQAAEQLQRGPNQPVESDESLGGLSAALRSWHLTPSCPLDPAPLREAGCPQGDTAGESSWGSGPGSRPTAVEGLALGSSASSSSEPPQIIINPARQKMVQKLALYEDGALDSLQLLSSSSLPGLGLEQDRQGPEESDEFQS
Assay: IRAK1 kinase assay
Type: biochemical
Details: read-out: % of kinase inhibition (mean), IRAK1, 10 μM compound; ATP 10 μM
Metric Name: inhibition at 10 µM (%)

Look over these answered cases.
1. O=C1C=CC(=O)C=C1 [1,4-benzoquinone] | 20
2. CC1=C(C/C=C(\C)CCC[C@H](C)CCC[C@H](C)CCCC(C)C)C(=O)c2ccccc2C1=O [phylloquinone (Vitamin K1), phylloquinone, reference compound] | 14

[I] Oc1ccc(O)cc1 [hydroquinone]
[II] CC1=CC(=O)C(C(C)C)=CC1=O [thymoquinone, 2-isopropyl-5-methyl-1,4-benzoquinone]
[III] CC(C)=CCC1=C(O)C(=O)c2ccccc2C1=O [lapachol]
Give the ascending ranking of the items by reported inhibition at 10 µM. Enter labels, ranked according to the request.
II, III, I

----------
Tested on: human IRAK4
Experiment: IRAK4 kinase assay
Format: biochemical
Conditions: 10 μM compound; ATP 10 μM
Metric Name: % of kinase inhibition (mean), IRAK4 (%)

1) CC1=CC(=O)c2c(O)cccc2C1=O [plumbagin, 5-hydroxy-2-methyl-1,4-naphthoquinone] | 0
2) CC1=CC(=O)C(C(C)C)=CC1=O [thymoquinone, 2-isopropyl-5-methyl-1,4-benzoquinone] | 0

[A] CC1=CC(=O)c2ccccc2C1=O [menadione (Vitamin K3), menadione, reference compound]
[B] Cc1cc(O)c2c(c1)C(=O)c1cc(O)cc(O)c1C2=O [emodin, 1,3,8-trihydroxy-6-methylanthraquinone]
Could you please tell me which of these two has the higher % of kinase inhibition (mean), IRAK4: A or B ? Label of pick, please.
B

----------
Molecular target: human IRAK1 (Homo sapiens)
pIC50: −log10 of the molar value.
Metric Name: pIC50

[A] CC(C)=CCC(O)C1=CC(=O)c2c(O)ccc(O)c2C1=O (centres unmarked)
[B] CC1=CC(=O)c2ccccc2C1=O [menadione (Vitamin K3), menadione, reference compound]
[C] Cc1cc(O)c2c(c1)C(=O)c1cc(O)cc(O)c1C2=O [emodin, 1,3,8-trihydroxy-6-methylanthraquinone]
Rank the items in ascending order with respect to pIC50. Write the labels, ordered according to the request.
B, A, C

----------
System: human IRAK4
Test: IRAK4 kinase assay
Format: biochemical
Conditions: 10 μM compound; ATP 10 μM
Metric Name: % of kinase inhibition (mean), IRAK4 (%)

These solved cases illustrate the format of a correct answer.
1) Oc1ccc(O)cc1 [hydroquinone] | 4
2) O=C1C=CC(=O)C=C1 | 0
3) O=C1C=CC(=O)c2ccccc21 | 10

[P] CC(C)=CCC(O)C1=CC(=O)c2c(O)ccc(O)c2C1=O (stereo not shown)
[Q] CC(C)=CCC1=C(O)C(=O)c2ccccc2C1=O
[R] CC1=C(C/C=C(\C)CCC[C@H](C)CCC[C@H](C)CCCC(C)C)C(=O)c2ccccc2C1=O [phylloquinone (Vitamin K1), phylloquinone, reference compound]
In this exercise, place the 3 compounds in ascending sequence of their recorded % of kinase inhibition (mean), IRAK4. I'd appreciate it if you listed the labels in the requested order.
P, Q, R
(P: 0%, Q: 3%, R: 9%)
